The reported measurements were obtained from paper PMC4697445.

- Assay Explanation: Biodistribution in rats
- Type: in vivo, male Sprague-Dawley rats
- Condition Label: rat, iv, 5 min p.i., mean ± SD, n = 4
fat uptake reference
Unit %ID/g implied. Number only.

Worked set:
Compound	fat uptake (%ID/g)
Cn1cc(-c2ccncc2)c(-c2ccc(OCc3cc(COCC[18F])c4ccccc4n3)cc2)n1 [[^18F]18e]	0.139
Cn1cc(-c2ccncc2)c(-c2ccc(OCc3nc4ccccc4cc3OCC[18F])cc2)n1 [[^18F]20a]	0.119
Cn1cc(-c2ccncc2)c(-c2ccc(OCc3cc(C[18F])c4ccccc4n3)cc2)n1 [[^18F]18b]	0.343
Cn1cc(-c2ccncc2)c(-c2ccc(OCc3cc([18F])c4ccccc4n3)cc2)n1 [[^18F]18a]	0.404
Cn1cc(-c2ccncc2)c(-c2ccc(OCc3cc(OCC[18F])c4ccccc4n3)cc2)n1 [[^18F]18d]	0.213
Cn1cc(-c2ccncc2)c(-c2ccc(OCc3cc(OCCOCCOCC[18F])c4ccccc4n3)cc2)n1 [[^18F]18g]	0.225

Then this compound:
**Query** Can you look up the measured fat uptake of Cn1cc(-c2ccncc2)c(-c2ccc(OCc3cc(CCC[18F])c4ccccc4n3)cc2)n1 [[^18F]18c] for me?
**Result** 0.220
